Every entry's value here was drawn from patent US20180319865A1.

In this section we review reported log10 EC50 values for a set of molecules.
Biological target: mutant integrin CD11bE320A/CD18 (Homo sapiens, UniProt P11215, E336A)
Construct: expressed in transfected cells; host or cells: K562 (ATCC)
Sequence (P11215 17-1152 E336A): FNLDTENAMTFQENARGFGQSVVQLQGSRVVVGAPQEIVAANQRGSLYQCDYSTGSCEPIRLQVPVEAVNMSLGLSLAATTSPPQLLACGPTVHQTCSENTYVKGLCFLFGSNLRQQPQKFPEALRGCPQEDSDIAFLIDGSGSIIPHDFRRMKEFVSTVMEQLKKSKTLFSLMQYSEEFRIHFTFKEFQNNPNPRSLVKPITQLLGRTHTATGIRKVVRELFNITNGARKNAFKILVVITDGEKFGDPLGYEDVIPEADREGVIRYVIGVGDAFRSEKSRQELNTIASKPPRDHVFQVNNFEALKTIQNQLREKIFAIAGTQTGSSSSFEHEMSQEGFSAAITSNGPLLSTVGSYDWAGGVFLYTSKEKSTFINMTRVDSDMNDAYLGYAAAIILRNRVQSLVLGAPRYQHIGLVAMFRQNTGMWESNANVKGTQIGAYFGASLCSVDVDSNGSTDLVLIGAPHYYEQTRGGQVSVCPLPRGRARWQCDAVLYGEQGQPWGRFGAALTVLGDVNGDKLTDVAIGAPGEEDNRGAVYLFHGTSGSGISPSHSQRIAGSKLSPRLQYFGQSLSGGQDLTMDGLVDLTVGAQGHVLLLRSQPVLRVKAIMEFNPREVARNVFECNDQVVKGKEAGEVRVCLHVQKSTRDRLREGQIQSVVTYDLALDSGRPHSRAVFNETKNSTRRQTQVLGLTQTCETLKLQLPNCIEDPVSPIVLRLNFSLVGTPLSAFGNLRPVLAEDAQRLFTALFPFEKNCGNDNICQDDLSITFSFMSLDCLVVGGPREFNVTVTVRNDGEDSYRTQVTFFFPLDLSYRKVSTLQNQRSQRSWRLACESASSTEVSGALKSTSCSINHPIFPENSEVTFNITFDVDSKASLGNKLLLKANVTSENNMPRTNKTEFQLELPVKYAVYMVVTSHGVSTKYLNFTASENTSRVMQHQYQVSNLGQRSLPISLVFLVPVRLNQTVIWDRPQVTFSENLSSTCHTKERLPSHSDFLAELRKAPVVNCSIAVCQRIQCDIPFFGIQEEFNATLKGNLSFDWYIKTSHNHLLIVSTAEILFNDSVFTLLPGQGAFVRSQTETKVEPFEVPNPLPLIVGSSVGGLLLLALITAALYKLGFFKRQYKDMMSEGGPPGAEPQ
Sequence (P05107 23-769 partner): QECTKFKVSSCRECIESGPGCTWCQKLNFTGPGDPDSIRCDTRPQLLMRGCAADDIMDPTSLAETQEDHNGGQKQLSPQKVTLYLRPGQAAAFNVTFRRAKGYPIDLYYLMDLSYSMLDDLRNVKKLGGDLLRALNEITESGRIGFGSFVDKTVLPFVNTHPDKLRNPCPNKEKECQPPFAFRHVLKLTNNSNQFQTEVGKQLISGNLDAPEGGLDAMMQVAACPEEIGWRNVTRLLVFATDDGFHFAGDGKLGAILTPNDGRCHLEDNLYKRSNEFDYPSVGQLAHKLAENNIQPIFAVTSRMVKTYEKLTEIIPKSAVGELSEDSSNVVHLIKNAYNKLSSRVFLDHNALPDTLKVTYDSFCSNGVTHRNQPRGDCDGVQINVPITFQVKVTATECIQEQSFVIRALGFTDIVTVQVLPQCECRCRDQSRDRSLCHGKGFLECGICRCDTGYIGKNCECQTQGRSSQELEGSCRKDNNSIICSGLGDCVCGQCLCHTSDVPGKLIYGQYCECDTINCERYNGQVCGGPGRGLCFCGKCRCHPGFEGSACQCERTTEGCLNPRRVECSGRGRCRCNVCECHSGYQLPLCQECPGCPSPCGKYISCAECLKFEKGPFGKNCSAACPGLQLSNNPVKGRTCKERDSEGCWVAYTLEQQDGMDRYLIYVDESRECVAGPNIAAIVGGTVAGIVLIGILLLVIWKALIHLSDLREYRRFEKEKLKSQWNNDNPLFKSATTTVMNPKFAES
Experiment: HTS cell adhesion assay, K562 E320A cells on immobilized fibrinogen
Assay type: cell-based
Conditions: Table 3, adhesion to fibrinogen, five point dose-response
Method: K562 cells stably expressing CD11c/CD18 (K562 CD11c/CD18) were generated similarly. […] K562 cells stably transfected with mutant integrin CD11bE320A/CD18 (K562 E320A) were generated according to literature protocols. […] The cells were fixed with 37% formaldehyde in a small volume and the plates were kept inverted for 1 h. […] Next, the cells were fluorescently labeled with DAPI (0.5 μM final in TBS with 0.1% Triton X-100) and the quantitated with “Opera High Content Screening System” (Perkin Elmer). […]
Lab note - EC50 converted to log10 from values in µM.

Solved entries:
Prompt line: Indicate the recorded log10 EC50 value for this molecule: O=C(Nc1nnc(-c2ccccc2SCc2ccccc2)s1)Nc1ccccc1F
Response line: 0.81

Prompt line: Indicate the recorded log10 EC50 value for this molecule: C/C(=N/NC(=O)c1cc2ccccc2cc1O)C1C(=O)c2ccccc2C1=O
Response line: 0.37

Prompt line: Indicate the recorded log10 EC50 value for this molecule: Cc1cc(C)cc(OCC(=O)Nc2ccc(N3CCCC3)cc2)c1
Response line: 0.54

Prompt line: Indicate the recorded log10 EC50 value for this molecule: O=[N+]([O-])c1ccc(-c2ccc(/C=N/c3c(-c4ccco4)nc4ccccn34)o2)c(Cl)c1
Response line: 1.07

Prompt line: Indicate the recorded log10 EC50 value for this molecule: O=C(CN1C(=O)c2ccccc2C1=O)Nc1ccc(-c2nc3ccccc3o2)cc1
Response line: -0.17

Further cases:
Prompt line: Indicate the recorded log10 EC50 value for this molecule: CCOC(=O)c1[nH]c2ccc(Cl)cc2c1NC(=O)/C=C/c1ccc2c(c1)OCO2
Response line: 1.64

Prompt line: Indicate the recorded log10 EC50 value for this molecule: N#Cc1c(-c2ccccc2)cc(-c2ccco2)c(C#N)c1N
Response line: 0.89

----------
target: mutant integrin CD11bE320A/CD18 (Homo sapiens, UniProt P11215, E336A); construct: expressed in transfected cells; host or cells: K562 (ATCC); experiment: HTS cell adhesion assay, K562 E320A cells on immobilized fibrinogen; format: cell-based; settings: Table 3, adhesion to fibrinogen, five point dose-response
Mark true (1) only when EC50 stays strictly below 8 µM. Values equal to the cut-off are false (0).

Prompt line: Does the reported EC50 of the following compound sit strictly below 8 µM? COc1ccc(NC(=O)CCC(=O)OCC(=O)c2ccc(Oc3ccc([N+](=O)[O-])cc3)cc2)cc1
Response line: false (0)

Prompt line: Does the reported EC50 of the following compound sit strictly below 8 µM? Cc1ccc(/C=C/C(=O)Nc2ccc([N+](=O)[O-])c(NC(=O)/C=C/c3ccc(C)o3)c2)o1
Response line: true (1)

Prompt line: Does the reported EC50 of the following compound sit strictly below 8 µM? CCn1c(COc2ccc3c(c2)CCCC3)nnc1SCC(=O)Nc1ccc(C(=O)OC)cc1
Response line: false (0)

Prompt line: Does the reported EC50 of the following compound sit strictly below 8 µM? O=C(Cn1c2ccccc2c(=O)c2ccccc21)N/N=C/c1ccc(N2CCCC2)c([N+](=O)[O-])c1
Response line: false (0)

Prompt line: Does the reported EC50 of the following compound sit strictly below 8 µM? O=C(NCC1OCCc2ccccc21)c1ccc(NC(=O)c2ccc(Cl)cc2)cc1 (stereo not drawn)
Response line: false (0)

Prompt line: Does the reported EC50 of the following compound sit strictly below 8 µM? Cc1ccc(C)c(NC(=S)NC(NC(=O)Cc2cccc3ccccc23)C(Cl)(Cl)Cl)c1 (stereo not drawn)
Response line: true (1)

Further cases:
Prompt line: Does the reported EC50 of the following compound sit strictly below 8 µM? COCCNC(=S)N/N=C/c1ccc(OCc2ccc(C(=O)OC)cc2)cc1
Response line: false (0)

Prompt line: Does the reported EC50 of the following compound sit strictly below 8 µM? O=C(NCc1ccco1)c1c2c(nc3ccccc13)CCC2
Response line: false (0)

Prompt line: Does the reported EC50 of the following compound sit strictly below 8 µM? Cc1csc(NC(=O)CSc2nc3sc(C)c(C)c3c(=O)[nH]2)n1
Response line: false (0)

Prompt line: Does the reported EC50 of the following compound sit strictly below 8 µM? Cc1cc(C)c(NC(=O)Cn2c(=O)n(Cc3ccco3)c(=O)c3ccccc32)c(C)c1
Response line: false (0)

Prompt line: Does the reported EC50 of the following compound sit strictly below 8 µM? COc1ccc2nc(O)c(CN(C3CCCCC3)C(c3nnnn3Cc3ccco3)C(C)C)cc2c1 (stereo not drawn)
Response line: false (0)

----------
biological target: mutant integrin CD11bE320A/CD18 (Homo sapiens, UniProt P11215, E336A); construct: expressed in transfected cells; host or cells: K562 (ATCC); test: HTS cell adhesion assay, K562 E320A cells on immobilized fibrinogen; type: cell-based; details: Table 3, adhesion to fibrinogen, five point dose-response
Measurement name: EC50 (µM)
Form entry: value (µM) — number only.

Prompt line: Indicate the recorded EC50 value for this molecule: Cc1ccc2nc(-c3ccc(NC(=O)COC(=O)c4cncc(Br)c4)cc3)sc2c1 [Compound 2365417]
Response line: 2.83

Further cases:
Prompt line: Indicate the recorded EC50 value for this molecule: COC(=O)c1[nH]c2ccccc2c1NC(=O)CN1CCCc2ccccc21 [Compound 658682]
Response line: 1.6

Prompt line: Indicate the recorded EC50 value for this molecule: Cc1ccc(-c2cc(C(=O)Nc3ccc(S(=O)(=O)Nc4nccs4)cc3)c3ccccc3n2)c(C)c1 [Compound 1358622]
Response line: 13.7

Prompt line: Indicate the recorded EC50 value for this molecule: CSc1nc(NCCOCCO)c2sc3nc(-c4ccco4)c4c(c3c2n1)CCC4 [Compound 665043]
Response line: 9.23

Prompt line: Indicate the recorded EC50 value for this molecule: O=C(/C=C/c1ccc(Cl)cc1)NC(=S)Nc1ccc(N2CCOCC2)c(Cl)c1 [Compound 1345254]
Response line: 7.53

Prompt line: Indicate the recorded EC50 value for this molecule: O=C1NC(=O)N(c2ccc(F)cc2)C(=O)/C1=C/c1ccc2c(c1)CCCN2Cc1ccccc1 [Compound 1997460]
Response line: 6.23

Prompt line: Indicate the recorded EC50 value for this molecule: COc1ccccc1-c1cc(C(=O)Nc2sc3c(c2C#N)CCC(C)C3)c2ccccc2n1 (stereo not shown) [Compound 3272728]
Response line: 10.8

Prompt line: Indicate the recorded EC50 value for this molecule: O=C(NNC(=O)c1cccc(S(=O)(=O)N2CCN(c3ccccc3)CC2)c1)c1ccc(Cl)cc1 [Compound 4412067]
Response line: 11.4

Prompt line: Indicate the recorded EC50 value for this molecule: CCOC(=O)c1c(-n2c(C)cc(C=C3C(=O)NC(=S)NC3=O)c2C)sc2c1CCCC2 [Compound 1494229]
Response line: 6.53

Prompt line: Indicate the recorded EC50 value for this molecule: Cc1cc(/C=C2\C(=O)NC(=O)N(c3ccc(Cl)cc3)C2=O)c(C)n1-c1sc2c(c1C#N)CCCC2 [Compound 1418314]
Response line: 9.57

----------
In this section we review reported pEC50 values for a set of molecules.
target: mutant integrin CD11bE320A/CD18 (Homo sapiens, UniProt P11215, E336A); construct: expressed in transfected cells; host or cells: K562 (ATCC); test: HTS cell adhesion assay, K562 E320A cells on immobilized fibrinogen; format: cell-based; conditions: Table 3, adhesion to fibrinogen, five point dose-response
Quick note: pEC50 values are minus log10 of concentrations in mol/L.

Prompt line: Indicate the recorded pEC50 value for this molecule: O=C(Nc1ccc(N2CCN(c3ccc(O)cc3)CC2)cc1)Oc1ccccc1
Response line: 5.44

Prompt line: Indicate the recorded pEC50 value for this molecule: Cc1ccc(-c2nc3ncccc3o2)cc1NC(=O)c1sc2ccccc2c1Cl
Response line: 5.35

Prompt line: Indicate the recorded pEC50 value for this molecule: Cc1onc(-c2c(Cl)cccc2Cl)c1C(=O)NC(=S)Nc1sc2c(c1C(N)=O)CCC(C)C2 (centres unmarked)
Response line: 5.22

Prompt line: Indicate the recorded pEC50 value for this molecule: O=C(CN1CCc2ccccc21)Nc1ccc2c(c1)OCO2
Response line: 5.05

Prompt line: Indicate the recorded pEC50 value for this molecule: Cc1oc(-c2ccc(Cl)cc2)cc1-c1nn2c(-c3ccoc3C)nnc2s1
Response line: 5.08

Prompt line: Indicate the recorded pEC50 value for this molecule: COc1ccc2nc(SCC(=O)Nc3ccc4sc(C)nc4c3)c(C#N)cc2c1
Response line: 5.40

Prompt line: Indicate the recorded pEC50 value for this molecule: CSc1nc(N(CCO)CCO)c2sc3nc(-c4ccco4)c4c(c3c2n1)CCC4
Response line: 5.31

Prompt line: Indicate the recorded pEC50 value for this molecule: N=C1/C(=C\c2ccc(-c3cc(Cl)cc(Cl)c3)o2)C(=O)N=C2SC=C(c3ccccc3)N12
Response line: 5.24

Further cases:
Prompt line: Indicate the recorded pEC50 value for this molecule: O=C(CNC(=O)c1cc2c(s1)CCC2)Nc1ccccc1Br
Response line: 2.06

Prompt line: Indicate the recorded pEC50 value for this molecule: CC(=O)NC(=S)Nc1ccc(-c2nc3ccc(C)cc3s2)cc1
Response line: 5.07

Prompt line: Indicate the recorded pEC50 value for this molecule: N#Cc1ccsc1NC(=O)CSc1ncnc2ccccc12
Response line: 4.95
